Test system: Colo205 tumor cells
Test: Method A: Methylene Blue Growth Inhibition Assay, Colo205
Format: cell-based
Settings: Homo sapiens, COLO 205, 72 h, 3 days
Procedure: Human breast (BT474) and head and neck (HN5) tumor cells were cultured in low glucose DMEM (Life Technologies 12320-032) containing 10% fetal bovine serum (FBS). […] Cells were harvested using trypsin/EDTA, counted using a haemocytometer, and plated in 100 μL of the appropriate media, at the following densities, in a 96-well tissue culture plate (Falcon 3075): BT474 10,000 cells/well, HN5 3,000 cells/well. […] Optical density at 620 nm was measured on a microplate reader. […]
This listing pairs compounds with measured IC50.

Below are worked cases with known answers.
Nc1nc(-c2cccc(NC(=O)c3cc(F)ccc3F)c2)c(-c2ccnc(Nc3cccc(-c4cnco4)c3)n2)s1 | > 1000 nM
O=C(Nc1cccc(-c2nc(NCCN3CCOCC3)sc2-c2ccnc(Nc3ccc4c(c3)CNCC4)n2)c1)c1c(F)cccc1F | 100 to 1000 nM
COCCOc1ccc(Nc2nccc(-c3sc(N)nc3-c3cccc(NC(=O)c4cccn4C)c3)n2)cc1F | 100 to 1000 nM
Nc1nc(-c2cccc(NC(=O)c3cc(F)ccc3F)c2)c(-c2ccnc(Nc3ccc4c(c3)CNCC4)n2)s1 | 100 to 1000 nM

Continue with the compound presented below.
Input line: Look up and report measured IC50 for this entry: COc1ccc(Nc2nccc(-c3sc(NCCN4CCOCC4)nc3-c3cccc(NC(=O)c4cc(F)ccc4F)c3)n2)cc1F
Output line: 100 to 1000 nM
